Target: PAK4 Catalytic Domain+PBD (Homo sapiens, UniProt O96013)
Construct: for 8, we also made a longer version containing one or more additional domains; His-tag; made in house; host or cells: Escherichia coli
Sequence (O96013 whole entry, the tested form may be a part): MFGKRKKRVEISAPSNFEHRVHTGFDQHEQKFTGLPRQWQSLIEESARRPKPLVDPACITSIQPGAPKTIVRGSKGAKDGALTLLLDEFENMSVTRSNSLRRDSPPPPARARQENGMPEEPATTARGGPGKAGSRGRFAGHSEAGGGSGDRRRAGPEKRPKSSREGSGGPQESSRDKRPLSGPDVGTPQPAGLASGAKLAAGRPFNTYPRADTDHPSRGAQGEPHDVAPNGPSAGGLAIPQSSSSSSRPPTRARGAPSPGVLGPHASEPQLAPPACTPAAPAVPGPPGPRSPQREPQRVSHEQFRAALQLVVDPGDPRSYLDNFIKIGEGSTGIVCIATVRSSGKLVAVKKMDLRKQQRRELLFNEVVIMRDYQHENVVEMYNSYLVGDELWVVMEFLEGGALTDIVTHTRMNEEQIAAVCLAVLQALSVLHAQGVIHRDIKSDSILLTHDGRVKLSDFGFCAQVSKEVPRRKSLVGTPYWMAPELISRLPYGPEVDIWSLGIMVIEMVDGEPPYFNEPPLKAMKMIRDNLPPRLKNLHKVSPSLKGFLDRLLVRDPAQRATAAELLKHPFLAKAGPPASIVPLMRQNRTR
Experiment: Differential Scanning Fluorimetry (DSF) Tm shift
Type: binding
Conditions: 2 µM protein, 10 µM inhibitor, average of 3 experiments, each in duplicate
Categories are defined by ranges of Melting temperature (Tm) shift, namely low bin (below 0.6 degrees Celcius), mid bin (0.6 degrees Celcius to below 2 degrees Celcius), high bin (2 degrees Celcius or more)

* CCn1cnc2c(Nc3cccc(Cl)c3)nc(N[C@H]3CCCC[C@H]3N)nc21 [Cdk1 Inhibitor, CGP74514A] | high bin
* CCCCc1c(-c2ccc(O)cc2)[nH]c2nccnc12 [Aloisine A, RP107, Aloisine A] | mid bin
* CCCCn1c2ccc(O)cc2c2c3c(c(-c4ccccc4Cl)cc21)C(=O)NC3=O [Wee1 Inhibitor II] | mid bin
* Brc1c(Br)c(Br)c2n[nH]nc2c1Br [Casein Kinase II Inhibitor I] | mid bin
* O=C1Nc2ccc(Cl)cc2C1=Cc1cc(Cl)c(O)c(Cl)c1 [PKR Inhibitor, Negative Control] | mid bin
* O=C(c1ccc(Nc2nccc(-c3cc4ccccc4s3)n2)cc1)N1CCC(N2CCCC2)CC1 [IKK Inhibitor VII] | low bin
* Nc1ncnc2c1c(I)cn2[C@@H]1O[C@H](CO)[C@@H](O)[C@H]1O [5-Iodotubercidin] | mid bin
* O=C1c2ccccc2-c2n[nH]c3cccc1c23 [JNK Inhibitor II] | mid bin
* CCN(CC)C(=O)c1ccc(Nc2nc(OCC3CCCCC3)c3[nH]cnc3n2)cc1 [Cdk2 Inhibitor IV, NU6140] | high bin
* Cn1cc(/C=C2\C(=O)Nc3ccc(S(N)(=O)=O)cc32)c2ccccc21 [Syk Inhibitor] | high bin
* Cl.NCCCn1cc(C2=C(c3c[nH]c4ccccc34)C(=O)NC2=O)c2ccccc21 [Bisindolylmaleimide III, Hydrochloride] | mid bin
* CN(C)c1nc2c(Br)c(Br)c(Br)c(Br)c2[nH]1 [Casein Kinase II Inhibitor II, DMAT] | low bin
* Nc1cccc(-c2cc3c(Oc4cccc(O)c4)ncnc3[nH]2)c1 [GSK3b Inhibitor XII, TWS119] | mid bin
* Cc1[nH]c(/C=C2\C(=O)Nc3ccc(S(=O)(=O)N(C)c4cccc(Cl)c4)cc32)c(C)c1C(=O)N1CCN(C)CC1 [Met Kinase Inhibitor] | low bin
* O=c1c(O)c(-c2ccc(O)c(O)c2)oc2cc(O)c(O)c(O)c12 [Quercetagetin] | low bin
* Cl.Cl.NCCNc1ncc(C(N)=O)c(Nc2cccc(C(F)(F)F)c2)n1 [Syk Inhibitor II] | high bin
* N#CCCc1ccc2c(c1)-c1[nH]c3ccc([N+](=O)[O-])cc3c1CC(=O)N2 [Alsterpaullone, 2-Cyanoethyl] | low bin
* Cc1cc(C=C2C(=O)C=CC2=O)cc(C)c1O [TX-1918] | mid bin
* COc1cc2ncnc(Nc3ccc(NC(=O)c4ccccc4)cc3)c2cc1OC [Aurora Kinase Inhibitor II] | low bin
* Cc1cc(Nc2nc(-c3ccccc3)nc3ccccc23)n[nH]1 [GSK-3 Inhibitor XIII] | mid bin
* NC(=O)Nc1sc(-c2ccc(F)cc2)cc1C(N)=O [IKK-2 Inhibitor IV] | high bin
* O=c1c2ccccc2[nH]c(=S)n1CCN1CCC(=C(c2ccc(F)cc2)c2ccc(F)cc2)CC1 [Diacylglycerol Kinase Inhibitor II] | low bin
* CC(C)n1cnc2c(Nc3cccc(Cl)c3)nc(NCCO)nc21 [Compound 52] | high bin
* c1nc2nc(Nc3ccc(N4CCOCC4)cc3)nc(NC3CCCCC3)c2[nH]1 [Reversine] | high bin
* COc1cc2ncnc(Nc3ccc(Cl)cc3Cl)c2cc1OC [Ste11 MAPKKK Activation Inhibitor] | low bin
* CC(C)(C)c1nc2c3cc[nH]c(=O)c3c3cc(F)ccc3c2[nH]1 [JAK Inhibitor I] | low bin
* CC(C)[C@H](CO)Nc1nc(Nc2cccc(Cl)c2)c2ncn(C(C)C)c2n1 [Purvalanol A] | high bin
* CN[C@@H]1C[C@H]2O[C@@](C)([C@@H]1OC)n1c3ccccc3c3c4c(c5c6ccccc6n2c5c31)C(=O)N[C@@H]4O [UCN-01] | high bin
* CC#CC(=O)Nc1cc2c(Nc3ccc(F)c(Cl)c3)ncnc2cn1 [EGFR/ErbB-2/ErbB-4 Inhibitor] | low bin
